Sourced from ChEMBL document CHEMBL2150866

# testMethodNotes: Intrinsic clearance in mouse liver microsomes at 1 uM
# Type: ADME, Microsome
# experimentalSetup: read-out: CLH
measurementName: microsomal CLint at 1 µM (µL/min/mg)
Dear colleague, please return just the value in µL/min/mg, with no unit written.

Enquiry: Entry "C=CC(=O)NC1CCN(S(=O)(=O)c2ccc(C(=O)NCCc3ccccc3)cc2)CC1" needs its microsomal CLint at 1 µM filled in; supply it.
Return: 99

====

# testMethodNotes: Efflux ratio of permeability in wild type MDCK cells
# Assay type: ADME, cell-based, Canis lupus familiaris
# experimentalSetup: dog
measurementName: efflux ratio
Provide a numeric answer; units are not to be included.

Enquiry: Entry "C=CC(=O)NC1CCN(S(=O)(=O)c2ccc(C(=O)NCCc3ccccc3)cc2)CC1" needs its efflux ratio filled in; supply it.
Return: 44

====

# testMethodNotes: Half life in human plasma at 1 uM
# Format: ADME, cell-free
Field: half-life at 1 µM. Provide a value for each of the compounds that follow.

Enquiry: Entry "C=CC(=O)NC1CCN(S(=O)(=O)c2ccc(C(=O)NCCc3ccc(Cl)cc3)cc2)CC1" needs its half-life at 1 µM filled in; supply it.
Return: > 6 h

Enquiry: Entry "C=CC(=O)NC1CN(S(=O)(=O)c2ccc(NC(=O)OCc3ccccc3)cc2)C1" needs its half-life at 1 µM filled in; supply it.
Return: > 6 h

Enquiry: Entry "C=CC(=O)NC1CCN(S(=O)(=O)c2ccc(C(=O)N(C)CCc3ccccc3)cc2)CC1" needs its half-life at 1 µM filled in; supply it.
Return: > 6 h

Enquiry: Entry "C=CC(=O)N1CCN(S(=O)(=O)c2ccc(NC(=O)OCc3ccccc3)cc2)CC1" needs its half-life at 1 µM filled in; supply it.
Return: > 6 h

Enquiry: Entry "C=CC(=O)N[C@@H]1CCCN(S(=O)(=O)c2ccc(NC(=O)OCc3ccccc3)cc2)C1" needs its half-life at 1 µM filled in; supply it.
Return: > 6 h

====

# subjectOfTest: Protein-glutamine gamma-glutamyltransferase K (Homo sapiens)
# Sequence (P22735 whole entry): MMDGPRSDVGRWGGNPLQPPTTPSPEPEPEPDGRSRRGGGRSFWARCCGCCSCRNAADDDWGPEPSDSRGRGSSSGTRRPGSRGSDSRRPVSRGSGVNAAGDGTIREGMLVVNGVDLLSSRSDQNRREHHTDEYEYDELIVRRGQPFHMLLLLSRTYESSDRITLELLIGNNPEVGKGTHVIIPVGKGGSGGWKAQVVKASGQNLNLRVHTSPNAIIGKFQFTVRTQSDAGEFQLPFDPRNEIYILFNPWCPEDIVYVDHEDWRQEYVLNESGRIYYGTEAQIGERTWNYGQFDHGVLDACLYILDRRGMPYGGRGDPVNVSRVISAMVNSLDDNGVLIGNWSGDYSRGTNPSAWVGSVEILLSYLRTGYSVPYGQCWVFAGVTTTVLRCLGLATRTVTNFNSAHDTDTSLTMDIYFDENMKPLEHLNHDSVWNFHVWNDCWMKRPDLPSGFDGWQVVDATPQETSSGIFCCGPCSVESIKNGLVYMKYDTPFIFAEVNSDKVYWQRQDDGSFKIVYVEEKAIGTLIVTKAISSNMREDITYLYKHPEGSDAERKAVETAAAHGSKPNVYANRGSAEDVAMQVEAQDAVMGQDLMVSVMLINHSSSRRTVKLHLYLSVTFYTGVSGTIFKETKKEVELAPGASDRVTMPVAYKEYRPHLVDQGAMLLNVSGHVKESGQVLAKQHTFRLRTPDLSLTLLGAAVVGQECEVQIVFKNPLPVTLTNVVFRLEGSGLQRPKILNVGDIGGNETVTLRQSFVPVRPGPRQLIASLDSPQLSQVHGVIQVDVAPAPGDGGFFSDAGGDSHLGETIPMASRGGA
# testMethodNotes: Inhibition of human TGM1
measurementName: IC50

Enquiry: System Protein-glutamine gamma-glutamyltransferase K (Homo sapiens). Read-out IC50. Item "C=CC(=O)NC1CCN(S(=O)(=O)c2ccc(C(=O)NCCc3ccc(OC)cc3)cc2)CC1" . Report value.
Return: 1.2 µM

====

# testMethodNotes: Apparent permeability from apical to basolateral side of wild type MDCK cells
# Type: ADME, cell-based, Canis lupus familiaris
# experimentalSetup: dog
measurementName: Papp A→B (×10⁻⁶ cm/s)
Dear colleague, please return just the value in ×10⁻⁶ cm/s, with no unit written.

Enquiry: Entry "C=CC(=O)NC1CCN(S(=O)(=O)c2ccc(C(=O)NCCc3ccccc3)cc2)CC1" needs its Papp A→B filled in; supply it.
Return: 8.3

====

# subjectOfTest: Protein-glutamine gamma-glutamyltransferase 2 (Mus musculus)
# Sequence (P21981 whole entry): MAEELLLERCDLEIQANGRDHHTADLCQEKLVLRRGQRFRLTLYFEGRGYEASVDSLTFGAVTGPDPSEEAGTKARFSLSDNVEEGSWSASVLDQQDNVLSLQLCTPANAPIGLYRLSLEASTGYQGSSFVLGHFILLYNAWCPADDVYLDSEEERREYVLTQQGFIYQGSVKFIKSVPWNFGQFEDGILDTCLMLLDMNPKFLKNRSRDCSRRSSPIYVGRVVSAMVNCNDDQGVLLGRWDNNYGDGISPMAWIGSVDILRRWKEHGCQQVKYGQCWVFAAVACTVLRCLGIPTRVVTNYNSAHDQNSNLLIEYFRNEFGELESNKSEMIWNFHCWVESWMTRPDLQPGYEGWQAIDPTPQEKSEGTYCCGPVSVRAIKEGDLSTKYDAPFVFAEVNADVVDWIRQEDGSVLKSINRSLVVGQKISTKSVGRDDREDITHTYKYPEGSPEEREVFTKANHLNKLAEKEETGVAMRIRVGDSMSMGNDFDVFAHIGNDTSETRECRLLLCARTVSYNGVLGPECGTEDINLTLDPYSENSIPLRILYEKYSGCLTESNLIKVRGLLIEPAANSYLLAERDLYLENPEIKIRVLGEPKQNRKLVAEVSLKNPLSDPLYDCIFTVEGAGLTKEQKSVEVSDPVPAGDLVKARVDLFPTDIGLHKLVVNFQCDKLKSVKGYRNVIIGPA
measurementName: IC50 (nM)
Dear colleague, please return just the value in nM, with no unit written.

Enquiry: Entry "C=CC(=O)NC1CCN(S(=O)(=O)c2ccc(C(=O)NCCc3ccc(OC)cc3)cc2)CC1" needs its IC50 filled in; supply it.
Return: 55

====

Sequence of the target: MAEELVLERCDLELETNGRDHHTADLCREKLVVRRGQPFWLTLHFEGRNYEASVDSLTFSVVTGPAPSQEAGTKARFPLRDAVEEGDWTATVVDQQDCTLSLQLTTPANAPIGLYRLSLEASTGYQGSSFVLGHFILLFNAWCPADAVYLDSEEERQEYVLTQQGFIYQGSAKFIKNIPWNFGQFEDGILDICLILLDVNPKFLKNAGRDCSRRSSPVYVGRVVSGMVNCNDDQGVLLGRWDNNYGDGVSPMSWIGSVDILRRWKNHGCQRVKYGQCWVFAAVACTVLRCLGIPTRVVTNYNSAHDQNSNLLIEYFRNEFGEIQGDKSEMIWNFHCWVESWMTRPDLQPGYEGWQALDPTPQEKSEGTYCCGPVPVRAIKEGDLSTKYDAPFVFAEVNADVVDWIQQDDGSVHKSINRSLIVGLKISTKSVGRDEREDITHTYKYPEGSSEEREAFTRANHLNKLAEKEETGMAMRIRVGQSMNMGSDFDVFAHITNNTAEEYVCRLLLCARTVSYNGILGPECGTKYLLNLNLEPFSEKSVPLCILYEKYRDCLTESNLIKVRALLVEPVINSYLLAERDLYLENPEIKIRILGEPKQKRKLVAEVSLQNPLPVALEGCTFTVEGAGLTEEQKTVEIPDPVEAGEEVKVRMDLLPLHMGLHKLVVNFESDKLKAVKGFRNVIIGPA
pIC50: −log10 of the molar value.
Everything with pIC50 lower than 6 is Not fulfilled; everything else, including exactly 6, is Fulfilled.

Enquiry: Hello, I need to know if "C=CC(=O)NC1CCN(S(=O)(=O)c2ccc(C(=O)NCCc3ccc(C)c(C)c3)cc2)CC1" has measured pIC50 not below 6. Thanks!
Return: Fulfilled

Enquiry: Hello, I need to know if "C=CC(=O)NC1CCN(S(=O)(=O)c2ccc(C(=O)NCCc3ccc4ccccc4c3)cc2)CC1" has measured pIC50 not below 6. Thanks!
Return: Fulfilled

Enquiry: Hello, I need to know if "C=CC(=O)NC1CCN(S(=O)(=O)c2ccc(C(=O)NCc3cccc4ccccc34)cc2)CC1" has measured pIC50 not below 6. Thanks!
Return: Fulfilled

Enquiry: Hello, I need to know if "C=CC(=O)N[C@@H]1CCCN(S(=O)(=O)c2ccc(NC(=O)OCc3ccccc3)cc2)C1" has measured pIC50 not below 6. Thanks!
Return: Not fulfilled

Enquiry: Hello, I need to know if C=CC(=O)NC1CCN(S(=O)(=O)c2ccc(C(=O)N[C@@H]3C[C@H]3c3ccccc3)cc2)CC1 (racemic) has measured pIC50 not below 6. Thanks!
Return: Fulfilled

Enquiry: Hello, I need to know if "C=CC(=O)NCCN(C)S(=O)(=O)c1ccc(NC(=O)OCc2ccccc2)cc1" has measured pIC50 not below 6. Thanks!
Return: Not fulfilled

Enquiry: Hello, I need to know if "C=CC(=O)NC1CCN(S(=O)(=O)c2ccc(C(=O)NCCc3ccc(OC)c(OC)c3)cc2)CC1" has measured pIC50 not below 6. Thanks!
Return: Fulfilled

Enquiry: Hello, I need to know if "Nc1ccc(S(=O)(=O)N2CCN(C(=O)C3CC3)CC2)cc1" has measured pIC50 not below 6. Thanks!
Return: Not fulfilled

Enquiry: Hello, I need to know if "C=CC(=O)NC1CCN(S(=O)(=O)c2ccc(C(=O)NCCc3ccc(-c4ccccc4)cc3)cc2)CC1" has measured pIC50 not below 6. Thanks!
Return: Not fulfilled

Enquiry: Hello, I need to know if "C=CC(=O)N[C@@H]1CCN(S(=O)(=O)c2ccc(NC(=O)OCc3ccccc3)cc2)C1" has measured pIC50 not below 6. Thanks!
Return: Not fulfilled

Enquiry: Hello, I need to know if "C=CC(=O)NC1CCN(S(=O)(=O)c2ccc(C(=O)NCc3ccccc3)cc2)CC1" has measured pIC50 not below 6. Thanks!
Return: Fulfilled

Enquiry: Hello, I need to know if "C=CC(=O)NC1CCN(S(=O)(=O)c2ccc(C(=O)NCCc3ccc4cccnc4c3)cc2)CC1" has measured pIC50 not below 6. Thanks!
Return: Fulfilled

Enquiry: Hello, I need to know if "C=CC(=O)NC1CN(S(=O)(=O)c2ccc(NC(=O)OCc3ccccc3)cc2)C1" has measured pIC50 not below 6. Thanks!
Return: Not fulfilled

Enquiry: Hello, I need to know if "C=CC(=O)NC1CCN(S(=O)(=O)c2ccc(C(=O)NC3Cc4ccccc4C3)cc2)CC1" has measured pIC50 not below 6. Thanks!
Return: Fulfilled

Enquiry: Hello, I need to know if C=CC(=O)NC1CCN(S(=O)(=O)c2ccc(C(=O)NC3CCCc4ccccc43)cc2)CC1 (configuration not stated) has measured pIC50 not below 6. Thanks!
Return: Fulfilled

Enquiry: Hello, I need to know if "C=CC(=O)NC1CCN(S(=O)(=O)c2ccc(C(=O)N(C)Cc3ccccc3)cc2)CC1" has measured pIC50 not below 6. Thanks!
Return: Fulfilled

Enquiry: Hello, I need to know if "C=CC(=O)NC1CCN(S(=O)(=O)c2ccc(C(=O)NCCc3cccc(Cl)c3)cc2)CC1" has measured pIC50 not below 6. Thanks!
Return: Fulfilled
